Test system: MCF7 breast
EXPERIMENTAL_PROTOCOL: NCI-60 one-dose screen, 48 h
MEASUREMENT_PARAMETERS: 10 µM unless noted
About 83,000 compounds went through this panel and 20% of them were active in at least one assay; those are over-represented in the sample as a whole. Active and inactive are the calls of the source. Rule for the calls: active = growth percent below 10; inactive = the rest.
Form entry, call: pick from active, inactive

COMPOUND	LABEL_CLASS
COc1ccc(/C=C2\Oc3cc(OCCN4CCCC4)ccc3C2=O)c(OC)c1	inactive

Consider the record given below.
Outcome? `NC(=O)NC(=O)/C=C/C(=O)OCCCl`
inactive

====

Test system: SF-268 CNS
EXPERIMENTAL_PROTOCOL: NCI-60 one-dose screen, 48 h (100 = growth as untreated, 0 = no growth, -100 = all killed)
MEASUREMENT_PARAMETERS: 10 µM unless noted
Compounds without any hit were thinned out: in the full panel of roughly 83,000, 20% have a hit.
Overview of recorded growth for various compounds
Give just the number in %; leave the unit off.

# count of solved cases: 5
COMPOUND	TARGET_DESC	READOUT_KIND	UNIT_NAME	QUANTITATIVE_RESULT
NC(CC(N)C(=O)O)C(=O)O (stereo not drawn)	SF-268 CNS	growth	%	109
O=C(CN1CCN(c2cc3c(cc2F)c(=O)c(C(=O)O)cn3C2CC2)CC1)Nc1ccc(C(=O)/C=C/c2ccc(Cl)cc2)cc1	SF-268 CNS	growth	%	121
NS(=O)(=O)c1ccc(CN2C(=O)c3cccc4cccc(c34)C2=O)cc1	SF-268 CNS	growth	%	92.4
CSc1ccccc1C#C/C=C\C#Cc1ccccc1N1CCCC1=O	SF-268 CNS	growth	%	56.6
CC(C)C[C@H](NC(=O)Cn1ccc(NCc2ccccc2)cc1=O)B(O)O	SF-268 CNS	growth	%	3.08

Which growth reading was recorded for the compound `COc1ccc(NC(=O)c2cc3ccccc3nc2Nc2cc(OC)c(OC)c(OC)c2)cc1` ?
66.6

Okay, and `COc1ccc(/C=C/C(=O)c2cccc(B(O)O)c2)cc1O` ?
47.8

Okay, and `COc1ccc(S(=O)(=O)Nc2cc(/C=C\c3cc(OC)c(OC)c(OC)c3)cc(OC)c2OC)cc1OC` ?
38.4

====

System: M14 melanoma
EXPERIMENTAL_PROTOCOL: NCI-60 one-dose screen, 48 h (100 = growth as untreated, 0 = no growth, -100 = all killed)
MEASUREMENT_PARAMETERS: 10 µM unless noted
About 83,000 compounds went through this panel and 20% of them were active in at least one assay; those are over-represented in the sample as a whole.
READOUT_KIND: growth (%)
Give just the number in %; leave the unit off.

MOLECULE	UNIT_NAME	growth
COc1cc(C2C=C(C)N=C3SC(C)=NN32)cc(OC)c1OC (stereo unspecified)	%	102
O=C1CCCCC=C1C[N+](=O)[O-]	%	91.3
O=C(NCCCN1CCN(CCCNC(=O)C2CCCCC2)CC1)C1CCCCC1	%	98.6
c1ccc2nc(-c3ccc4ccccc4n3)ccc2c1	%	90.2
COc1ccc(/C=C/C(=O)c2ccc(NC(=O)CN3CCN(c4cc5c(cc4F)c(=O)c(C(=O)O)cn5C4CC4)CC3)cc2)cc1	%	96.9

As a next step, examine the molecule that follows.
Which growth reading was recorded for the molecule CCCCC(N)(C(=O)O)C1CCCC1 (stereo unspecified) ?
107

====

System: SK-MEL-2 melanoma
EXPERIMENTAL_PROTOCOL: NCI-60 one-dose screen, 48 h (100 = growth as untreated, 0 = no growth, -100 = all killed)
MEASUREMENT_PARAMETERS: 10 µM unless noted
This is part of a sample that, as a whole, favours compounds with a hit. Of some 83,000 tested, about 20% had one in any assay. Activity calls are given as the source filed them. How the source made its calls: active means growth percent below 10; inactive means the rest.
READOUT_KIND: growth

# count of solved cases: 3
COMPOUND	growth
COc1cc(NS(C)(=O)=O)ccc1Nc1c2ccc([N+](=O)[O-])cc2nc2c(C)cccc12	25.4% (inactive)
OC1CC2c3ccccc3C1c1ccccc12 (centres undefined)	117% (inactive)
Cc1nc2sccn2c1-c1csc(Nc2ccccc2Cl)n1	33.9% (inactive)

As a next step, examine the compound that follows.
Which growth reading was recorded for the compound CC(Cc1nnc(SCC(=O)Nc2ccc(I)cc2)n1N)c1ccccc1 (centres undefined) ?
69.8% (inactive)

====

Test system: SR leukemia
EXPERIMENTAL_PROTOCOL: NCI-60 one-dose screen, 48 h
MEASUREMENT_PARAMETERS: 10 µM unless noted
About 83,000 compounds went through this panel and 20% of them were active in at least one assay; those are over-represented in the sample as a whole. Activity calls are given as the source filed them. The calls were made as follows: active = growth percent below 10; inactive = the rest.
Form entry, call: pick from active, inactive

# count of solved cases: 2
MOLECULE	LABEL_CLASS
COc1ccc(C2=NN(c3ccc(S(N)(=O)=O)cc3)C(c3cn(-c4ccccc4)nc3-c3ccc(Cl)cc3)C2)cc1 (stereo not drawn)	inactive
Cc1cc(C)c2c(=O)[nH]c(SCC(=O)Nc3cccc(S(=O)(=O)N(C)C)c3)nc2n1	inactive

Outcome? `COc1cc2nc(N3CCC[C@@H](NC4=CC(=O)c5ccccc5C4=O)C3)nc(N)c2cc1OC`
active

Okay, and `Cc1ccc(Oc2nc3ccccc3cc2-c2nnc(Cn3c(COc4ccccc4)nc4ccccc43)o2)cc1` ?
active

Okay, and CC[C@H](C)[C@@H]1NC(=O)[C@H]([C@@H](C)O)NC(=O)C(Cc2ccccc2)NC(=O)[C@@H]2CCCN2C(=O)C(C(C)C)NC(=O)C(Cc2ccccc2)NC(=O)CNC(=O)[C@@H]2CCCN2C1=O (stereo partly drawn) ?
inactive

Okay, and CCOC(=O)c1ccccc1NC(c1ccccc1)c1ccc2cccnc2c1O (stereo not drawn) ?
inactive

Okay, and `COc1ccc(/C=C/C(=O)/C=C/c2cc3ccc(Cl)cc3[nH]c2=O)cc1` ?
active

====

Overview of recorded growth for various compounds
System: SK-MEL-2 melanoma
EXPERIMENTAL_PROTOCOL: NCI-60 one-dose screen, 48 h (100 = growth as untreated, 0 = no growth, -100 = all killed)
MEASUREMENT_PARAMETERS: 10 µM unless noted
Experimental: Growth inhibition of the SK-MEL-2 human tumor cell line is measured as a screen for anti-cancer activity. Cells are grown in 96 well plates and exposed to the test compound for 48 hours. Compounds are tested at a single concentration, which is 10^-5 M for most compounds. The reported endpoint is percent growth (GI% or GIPRCNT), where numbers from 0 - 100% represent growth inhibition, and numbers from -100% - 0 represent cell death. For example, a value of 40 represents 60% growth inhibition. […]
Compounds without any hit were thinned out: in the full panel of roughly 83,000, 20% have a hit.
Give just the number in %; leave the unit off.

COMPOUND	UNIT_NAME	growth
Cc1ccc(C(=O)c2sc3nc4c(cc3c2N)CCCC4)c(C)c1	%	-13.7
NC(=O)c1c(NC(=O)c2ccc(OCC3CCCO3)cc2)sc2c1CCCC2 (stereo unspecified)	%	84.9

What is its growth for SK-MEL-2 melanoma? Entry: `COc1ccc(-n2cnc3c(sc4ncc(Cl)cc43)c2=O)cc1`
120

Okay, and `CCNC(=O)CCCCC(=O)c1c(C)[nH]c(/C=C2\N=C(c3ccc[nH]3)C=C2OC)c1C` ?
40.8

Okay, and COC12CC(=O)C(C(C)=O)=C(O)C1(C)c1c(O)c(C)c(O)c(C(C)=O)c1O2 (stereo unspecified) ?
41.9

Okay, and `COc1ccc2c(c1)C(=O)/C(=C/c1ccc(O)cc1)O2` ?
81.2

Okay, and `C=C1C(=O)O[C@H]2[C@H]1CC/C(COC(=O)NCCc1ccc(OC)cc1)=C\CC[C@@]1(C)O[C@@H]21` ?
63.4

Okay, and COc1cc(C2CC(c3c(C)[n+]([O-])c4ccccc4[n+]3[O-])=NN2)cc(OC)c1OC (stereo unspecified) ?
96.4

Okay, and `CCC(=O)Nc1ccccc1C#C/C=C\C#Cc1ccccc1SC` ?
28

Okay, and Cc1ccc(S(=O)(=O)OC2COCOC2C(OS(=O)(=O)c2ccc(C)cc2)C2OCOCC2OS(=O)(=O)c2ccc(C)cc2)cc1 (stereo unspecified) ?
104

Okay, and `Cc1ccc2nc(-c3c(N)n[nH]c3CCCO)[nH]c(=O)c2c1` ?
108

Okay, and `Cc1ccc(-c2csc3nc(C)c(CCCl)c(=O)n23)cc1` ?
94.5

Okay, and Cc1c(C2=NNC(c3ccc4c(c3)OCO4)C2)[n+]([O-])c2ccccc2[n+]1[O-] (stereo unspecified) ?
81.4

Okay, and `COc1ccc(Cn2c(SC)nc(=O)n(Cc3ccc(Cl)cc3)c2=O)cc1` ?
102

Okay, and `O=C1c2ccccc2C(=O)c2c(N=Nc3sc(=O)[nH]c3S)cccc21` ?
95.2

Okay, and O=C1NCC(c2cc3ccccc3[nH]c2=O)Nc2ccccc21 (stereo unspecified) ?
100

Okay, and `CCOC(=O)/C=C\C(=O)NC(N)=O` ?
101

Okay, and CCCCCCC[C@@H](O)CC(=O)N[C@H](CCCCN)C(=O)N[C@H](Cc1c[nH]c2ccccc12)C(=O)NC(CCCCN)C(=O)N[C@H](CC(C)C)C(=O)N[C@H](Cc1ccccc1)C(=O)N[C@H](CCCCN)C(=O)N[C@H](CCCCN)C(=O)N[C@H](CC(C)C)C(=O)N1CCCC1C(=O)N[C@H](CCCCN)C(=O)N[C@H](Cc1ccccc1)C(=O)N[C@H](CC(C)C)C(=O)N[C@H](Cc1c[nH]cn1)C(=O)N[C@H](CC(C)C)C(=O)N[C@H](C)C(=O)N[C@H](CCCCN)C(=O)N[C@H](CCCCN)C(=O)N[C@H](Cc1ccccc1)C(=O)O (stereo partly specified) ?
-60.1
